Give melting point for every item shown.

Query block: Fill in: melting point of CC1(c2ccccc2)C(=O)Nc2ccccc2C1=O (stereo not given) is ___
Result block: 194 to 196 °C

Query block: Fill in: melting point of Cn1ccc2cc(NC(=O)/C=C/c3ccc(C(C)(C)C)cc3)ccc21 is ___
Result block: 171 °C

Query block: Fill in: melting point of Fc1ccc(Nc2ncnc3cnc(NCC4CCNCC4)nc23)cc1Cl is ___
Result block: 204 to 206 °C

Query block: Fill in: melting point of Clc1ccc(-n2cccn2)cc1 is ___
Result block: 50 to 53 °C

Query block: Fill in: melting point of OCC(CO)SCc1ccc(Cl)cc1 is ___
Result block: 70 to 75 °C

Query block: Fill in: melting point of Cc1cc(C(F)(F)F)ccc1NC(=O)C(C)(C)C is ___
Result block: 111 to 114 °C

Query block: Fill in: melting point of CC(C)(C)OC(=O)N1CCC(OCc2ccccc2)C1CC(O)Cn1cnc2cccc(F)c2c1=O (stereo not given) is ___
Result block: 219 °C

Query block: Fill in: melting point of Cc1nccn1Cc1cnn(-c2ccc(Cl)c(Cl)c2)c1 is ___
Result block: 176 to 177 °C

Query block: Fill in: melting point of COc1ccc2c(c1)N1CCOCC1C[N+]([O-])=C2c1ccco1 (stereo not given) is ___
Result block: 183 to 186 °C

Query block: Fill in: melting point of COc1nc(NCCCN2CCOCC2)nc(OC)c1NC(=O)c1ccc(Oc2cncc([Si](C)(C)C)c2)o1 is ___
Result block: 80 to 82 °C

Query block: Fill in: melting point of COc1c(C(=O)O)n(C)c(=O)c2ccc(Cl)cc12 is ___
Result block: 216 to 217 °C

Query block: Fill in: melting point of COc1ccc(C2CCN(CCCCc3ccccc3)CC2)cc1 is ___
Result block: 48 to 50 °C

Query block: Fill in: melting point of O=C(Oc1ccccc1)N1CCC2(CC1)SC(c1cccc(F)c1)c1ccccc12 (stereo not given) is ___
Result block: 134 to 142 °C

Query block: Fill in: melting point of COC(=O)C1CCN2C(=O)C(=O)c3cc(Br)cc1c32 (stereo not given) is ___
Result block: 150 to 151 °C

Query block: Fill in: melting point of C[C@H]1[C@@H](CO)CCN1c1ccc(C#N)c2sccc12 is ___
Result block: 109 to 111 °C
